Overview of reported T/C across a group of compounds:
system: CD2F1 mice, L1210 leukemia ip, survival T/C; experiment: NCI In Vivo Anticancer Drug Screen. Data for tumor model L1210 Leukemia (intraperitoneal) in CD2F1 (CDF1) mice; settings: endpoint: mean survival time; dose: 200.0 mg/kg/injection; schedule: Q01DX005 (ip); vehicle: water; higher = longer survival
Inconclusive results and toxic doses are left out.

Requested field: T/C. Item: O=C(O)c1[nH]nc(-c2ccc([N+](=O)[O-])cc2)c1[N+](=O)[O-] 89 % of control

Requested field: T/C. Item: COC(=O)c1ncn(C2OC(COC(C)=O)C(OC(C)=O)C2OC(C)=O)c1C(=O)OC (centres undefined) 96 % of control

Requested field: T/C. Item: OCC1OC(n2cnc3c2NC=N[C@@H]3CO)C(O)C1O (some centres undefined) 111 % of control

Requested field: T/C. Item: Cn1c(=O)c2c(ncn2CCCNCC(O)c2ccc(O)c(CO)c2)n(C)c1=O (centres undefined) 98 % of control

###

test system: CD2F1 mice, L1210 leukemia ip, survival T/C; experiment: NCI In Vivo Anticancer Drug Screen. Data for tumor model L1210 Leukemia (intraperitoneal) in CD2F1 (CDF1) mice; conditions: endpoint: mean survival time; dose: 200.0 mg/kg/injection; schedule: Q04DX003 (ip); vehicle: saline with Tween-80; higher = longer survival
Toxic doses and inconclusive results are not listed.
ASSAY READOUT: T/C

Please review the following examples before continuing.
N#CCOc1cccc([N+](=O)[O-])c1 : 96 % of control
Nc1nc(N)c(-c2ccc(Cl)c(Cl)c2)c(CP(Cl)(Cl)(Cl)Br)n1 : 100 % of control
Cc1ccc(NC(=O)CCl)cc1Cl : 89 % of control
O=C(c1ccccc1)C(O)(Cc1ccccc1)c1ccccc1 (configuration not stated) : 102 % of control
O=C(O)c1cccc(C(=O)O)c1 : 102 % of control

Please examine the following record next.
Requested field: T/C. Item: CC(SC(=S)N(C)C)C(=O)O (configuration not stated) 101 % of control

###

tested on: CD2F1 mice, L1210 leukemia ip, survival T/C; assay: NCI In Vivo Anticancer Drug Screen. Data for tumor model L1210 Leukemia (intraperitoneal) in CD2F1 (CDF1) mice; settings: endpoint: mean survival time; dose: 1.56 mg/kg/injection; schedule: Q01DX009 (ip); vehicle: saline; higher = longer survival
Toxic doses and inconclusive results are not listed.
Overview of reported T/C across a group of compounds:

Requested field: T/C. Item: O=C(O)CCN(Cl)Cl 97 % of control

Requested field: T/C. Item: NC(=S)/C(N)=N/Nc1ccc(Cl)cc1 108 % of control

Requested field: T/C. Item: [CH3][Sn]([CH3])([Br])[CH2]CCBr 97 % of control

Requested field: T/C. Item: Nc1ncn(C2OC(COC(=O)c3ccccc3)C(OC(=O)c3ccccc3)C2OC(=O)c2ccccc2)c(=O)n1 (centres undefined) 108 % of control

###

system: CD2F1 mice, L1210 leukemia ip, survival T/C; test: NCI In Vivo Anticancer Drug Screen. Data for tumor model L1210 Leukemia (intraperitoneal) in CD2F1 (CDF1) mice; conditions: endpoint: mean survival time; dose: 100.0 mg/kg/injection; schedule: Q04DX003 (ip); vehicle: saline with Tween-80; higher = longer survival
Toxic doses and inconclusive results are not listed.
ASSAY READOUT: T/C

Please review the following examples before continuing.
CC12CCC(O1)C1C(=O)NC(=O)C12 (stereo not drawn) : 94 % of control
O=C(O)c1c(F)c(F)c2c(F)c(F)c(F)c(F)c2c1F : 93 % of control
COc1cc(NCc2ccccc2O)c2ncccc2c1 : 91 % of control

Requested field: T/C. Item: CCCCCC#CC(=O)OC 94 % of control

Requested field: T/C. Item: C1=CC23CC(c4ccccc42)C2c4ccccc4C23C=C1 (stereo not drawn) 93 % of control

Requested field: T/C. Item: C=CCCCCCCCCC(=O)N(CC#N)CC(C)C 96 % of control

Requested field: T/C. Item: OC1CC2C3C4C1C1C2C3C41 (stereo not drawn) 107 % of control

Requested field: T/C. Item: Cc1cc(N(CCCl)CCCl)ccc1C1N(Cc2ccc(N(C)C)cc2)CCCN1Cc1ccc(N(C)C)cc1 98 % of control

###

system: CD2F1 mice, L1210 leukemia ip, survival T/C; experiment: NCI In Vivo Anticancer Drug Screen. Data for tumor model L1210 Leukemia (intraperitoneal) in CD2F1 (CDF1) mice; conditions: endpoint: mean survival time; dose: 25.0 mg/kg/injection; schedule: Q04DX003 (ip); vehicle: saline; higher = longer survival
Inconclusive results and toxic doses are left out.
ASSAY READOUT: T/C

Please review the following examples before continuing.
Cc1cccc[n+]1C : 104 % of control
c1ccc2c(CC[n+]3cccc(C4OCCO4)c3)c[nH]c2c1 : 96 % of control
CC#CC(=O)SCCNC(=O)CCNC(C)=O : 105 % of control

Requested field: T/C. Item: C[As](C)[Se]C1OC(CO)C(O)C(O)C1O (stereo not given) 97 % of control

Requested field: T/C. Item: O=S(=O)(O)O.[N-]=C(N)/N=C(\[NH-])N.[N-]=C(N)/N=C(\[NH-])N.[N-]=C(N)NC(=[N-])N.[Rh+3] 96 % of control

Requested field: T/C. Item: CN(C)C1CC[N-]CC1.CN(C)C1CC[N-]CC1.[Cl][Pt+2][Cl] 103 % of control

Requested field: T/C. Item: O=C(O)C(O)C(=O)O.[NH2-].[NH2-].[Pt+2] 108 % of control

Requested field: T/C. Item: CC(=O)SCCC(=O)O 96 % of control

Requested field: T/C. Item: CC1=NCCc2ccccc21 93 % of control

Requested field: T/C. Item: CC(CSc1ccccc1)NCCO (stereo not given) 95 % of control

###

System: CD2F1 mice, L1210 leukemia ip, survival T/C
Assay: NCI In Vivo Anticancer Drug Screen. Data for tumor model L1210 Leukemia (intraperitoneal) in CD2F1 (CDF1) mice
Conditions: endpoint: mean survival time; dose: 75.0 mg/kg/injection; schedule: Q01DX001 (ip); vehicle: saline; higher = longer survival
Experimental: The antitumor activity of compounds was measured in mice bearing transplantable tumors. Survival or tumor size were measured and the results are expressed as the measurement made in the treated group (T) divided by the measurement made in the vehicle treated control group (C). The tumor model used in this assay is L1210 Leukemia (intraperitoneal) in CD2F1 (CDF1) mice
Inconclusive results and toxic doses are left out.
Overview of reported T/C across a group of compounds:

N=c1ccccn1CCO : 100 % of control
CN(C)C(=Nc1ccccc1)N(C)N : 97 % of control
CCOC(=O)C(CCC(O)C#N)(CC(C)=O)C(=O)OCC (stereo not drawn) : 100 % of control

Requested field: T/C. Item: CCCCCCCCCCCCNCCC(=O)O 93 % of control

Requested field: T/C. Item: O=C1CC2OCC=C3CN4CCC5(C(=O)O)C(N1)C2C3CC45 (stereo not drawn) 106 % of control

Requested field: T/C. Item: CN(C)C(c1ccccc1)C(O)c1ccccc1 (stereo not drawn) 103 % of control

Requested field: T/C. Item: NC(CCNCCc1ccccc1)CNCCc1ccccc1 (stereo not drawn) 107 % of control

Requested field: T/C. Item: CCN(CC)CCN(C)C(O)(C(=O)c1ccccc1)C1CCCCC1 (stereo not drawn) 105 % of control

Requested field: T/C. Item: C1=CCC2C3C=CC(CC3)C2C1 (stereo not drawn) 86 % of control

Requested field: T/C. Item: O=C1CCCCC1CNCc1ccccc1 (stereo not drawn) 102 % of control

Requested field: T/C. Item: CCN(CC)CCSC(=O)C(O)(c1ccccc1)c1cccc(C)c1 (stereo not drawn) 105 % of control

Requested field: T/C. Item: CC12CCC3C(CC=C4CC(OC(=N)N)CCC43C)C1CCC2=O (stereo not drawn) 98 % of control

Requested field: T/C. Item: CCOC(=O)c1c2c(n3ccccc13)C(=O)c1ccccc1C2=O 97 % of control

###

tested on: CD2F1 mice, L1210 leukemia ip, survival T/C; experiment: NCI In Vivo Anticancer Drug Screen. Data for tumor model L1210 Leukemia (intraperitoneal) in CD2F1 (CDF1) mice; settings: endpoint: mean survival time; dose: 400.0 mg/kg/injection; schedule: Q01DX009 (ip); vehicle: saline with Tween-80; higher = longer survival
Toxic doses and inconclusive results are not listed.
ASSAY READOUT: T/C

Please review the following examples before continuing.
CN(Cc1ccc(Cl)cc1)N=Nc1ccc(C#N)cc1 : 93 % of control
O=C1CC(c2ccc([N+](=O)[O-])cc2)=Nc2ccccc2N1 : 96 % of control
N=Cc1c(O)n(C2CCCCC2)c(=O)[nH]c1=O : 98 % of control

Requested field: T/C. Item: CCCCCCCCN(C#N)CCCCCCCC 97 % of control

Requested field: T/C. Item: CCOC(=O)CCOc1ccc(Cl)cc1 104 % of control

Requested field: T/C. Item: c1cc2c3c(cccc3c1)/C(=C1/Cc3cccc4cccc1c34)C2 110 % of control

Requested field: T/C. Item: CC(=O)CC(C)(C)O 95 % of control

Requested field: T/C. Item: COc1ccc(OC)c(/C=C/c2ccc3ccccc3n2)c1 106 % of control

Requested field: T/C. Item: NC(=O)C(CSCc1ccccc1)NC(=O)OCc1ccccc1 (centres undefined) 91 % of control

Requested field: T/C. Item: ClC(Cl)=C(c1ccc(Cl)cc1)c1ccc(Cl)cc1 101 % of control
